test name: Pharmacokinetics of d-threo and l-threo methylphenidate in plasma after intravenous administration of 10 mg racemic methylphenidate
condition details: male, human, plasma, iv, 10 mg, CL, mean of 11 subjects; IV 10 mg racemic methylphenidate
experimental readout: clearance (mL/min/kg)
One number for each entry, in mL/min/kg.

Task item: Request the reported clearance associated with COC(=O)[C@@H](c1ccccc1)[C@@H]1CCCCN1 [l-MPH, l-threo methylphenidate]
Reply: 12.2

Okay, next one:
Task item: Request the reported clearance associated with COC(=O)[C@H](c1ccccc1)[C@H]1CCCCN1 [d-MPH, d-threo-methylphenidate]
Reply: 6.67

----------
test name: Pharmacokinetics of d-threo and l-threo methylphenidate in plasma after oral administration of 40 mg immediate release racemic methylphenidate
Type: in vivo, human
condition details: male, human, plasma, po, 40 mg, individual subjects 1-11; plasma; oral 40 mg immediate release methylphenidate; read-out: Cmax
experimental readout: Cmax
Numeric answer plus unit only.

Task item: Request the reported Cmax associated with COC(=O)[C@H](c1ccccc1)[C@H]1CCCCN1 [d-MPH, d-threo-methylphenidate]
Reply: 14.7 ng/mL

----------
test name: Pharmacokinetics of d-threo and l-threo methylphenidate in plasma after oral administration of 40 mg immediate release racemic methylphenidate
Type: in vivo, human
condition details: male, human, plasma, 40 mg; after oral administration of commercially available racemic methylphenidate; read-out: bioavailability in blood plasma
Can you tell me bioavailability for the items I'm about to list?

Task item: Request the reported bioavailability associated with COC(=O)[C@H](c1ccccc1)[C@H]1CCCCN1 [d-MPH, d-threo-methylphenidate]
Reply: ~22%

Further cases:
Task item: Request the reported bioavailability associated with COC(=O)[C@@H](c1ccccc1)[C@@H]1CCCCN1 [l-MPH, l-threo methylphenidate]
Reply: 5%

----------
test name: Pharmacokinetics of d-threo and l-threo methylphenidate in plasma after oral administration of 40 mg immediate release racemic methylphenidate
Format: in vivo, human
condition details: male, human, plasma, po, 40 mg, mean of 11 subjects; plasma; oral 40 mg immediate release methylphenidate; read-out: Cmax
experimental readout: Cmax (ng/mL)
One number for each entry, in ng/mL.

Task item: Request the reported Cmax associated with COC(=O)[C@@H](c1ccccc1)[C@@H]1CCCCN1 [l-MPH, l-threo methylphenidate]
Reply: 2.98

Further cases:
Task item: Request the reported Cmax associated with COC(=O)[C@H](c1ccccc1)[C@H]1CCCCN1 [d-MPH, d-threo-methylphenidate]
Reply: 18.1

----------
test name: Pharmacokinetics of d-threo and l-threo methylphenidate in plasma after intravenous administration of 10 mg racemic methylphenidate
condition details: male, human, plasma, iv, 10 mg, Vdss, mean of 11 subjects; IV 10 mg racemic methylphenidate
experimental readout: Vd
Numeric answer plus unit only.

Task item: Request the reported Vd associated with COC(=O)[C@@H](c1ccccc1)[C@@H]1CCCCN1 [l-MPH, l-threo methylphenidate]
Reply: 1.8 L/kg

Okay, next one:
Task item: Request the reported Vd associated with COC(=O)[C@H](c1ccccc1)[C@H]1CCCCN1 [d-MPH, d-threo-methylphenidate]
Reply: 2.65 L/kg

----------
Can you tell me Tmax for the items I'm about to list?
test name: Pharmacokinetics of d-threo and l-threo methylphenidate in plasma after oral administration of 40 mg immediate release racemic methylphenidate
Assay type: in vivo, human
condition details: male, human, plasma, po, 40 mg, mean of 11 subjects; plasma; oral 40 mg immediate release methylphenidate; read-out: Tmax
Numbers only, in h.

Give Tmax for each of the items listed below.
1. COC(=O)[C@@H](c1ccccc1)[C@@H]1CCCCN1 [l-MPH, l-threo methylphenidate]
2. COC(=O)[C@H](c1ccccc1)[C@H]1CCCCN1 [d-MPH, d-threo-methylphenidate]

Reply:
[2.2, 2.4]

----------
test name: Pharmacokinetics of d-threo and l-threo methylphenidate in plasma after oral administration of 40 mg immediate release racemic methylphenidate
Type: in vivo, human
condition details: male, human, plasma, po, 40 mg, mean of 11 subjects; plasma; oral 40 mg immediate release methylphenidate; read-out: t½ (converted)
experimental readout: half-life
Numeric answer plus unit only.

Task item: Request the reported half-life associated with COC(=O)[C@@H](c1ccccc1)[C@@H]1CCCCN1 [l-MPH, l-threo methylphenidate]
Reply: 3.93 h

Okay, next one:
Task item: Request the reported half-life associated with COC(=O)[C@H](c1ccccc1)[C@H]1CCCCN1 [d-MPH, d-threo-methylphenidate]
Reply: 5.69 h
